Multiple publications report IC50 for PDE1A (Homo sapiens); what follows is a combined list.
measurement_name: IC50 (nM)

Here is how some molecules turned out for IC50.
{"molecule": "Cc1ccc(Cc2nn3c(C4CCOCC4)ncc3c(=O)n2CC(C)C)cc1", "IC50 (nM)": 47}
{"molecule": "CCOc1ncccc1-c1cc(N[C@@H]2CCOC2)c2c(cnn2CC)n1 (single isomer, unassigned)", "IC50 (nM)": 467}
{"molecule": "CCCN(c1ncnc2c(OC)c(OC)ccc12)[C@@H]1CCOC1", "IC50 (nM)": 270}
{"molecule": "Cc1cn2c(C3CCOCC3)ncc2c(=O)n1CC1CCCCCC1", "IC50 (nM)": 10}

[P] CCOc1ncccc1-c1cc(NCc2cnc(C)s2)c2c(C(C)C)nn(C)c2n1
[Q] CCCn1ncc2nc(-c3cccnc3OCC)cc(N[C@@H]3CCOC3)c21 (single isomer, unassigned)
Please let me know which one, P or Q , has a lower measured IC50 value. Indicate your choice by writing its label.
P
(P: 14 nM, Q: 327 nM)
